B1: Twister Ribozyme (parent)
chain: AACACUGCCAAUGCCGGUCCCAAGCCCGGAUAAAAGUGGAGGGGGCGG

- Variants of: B1
- Procedure Summary: self-cleavage, relative activity (ratio to wild type); higher = more cleavage; co-transcriptional
self-cleavage reference
Please give only the number in your answer, with no unit.

| Chain Sequence | self-cleavage |
| --- | --- |
| AACACUGCCAAUGCCGGUCCCAAGCCCGGAUAAAAGUGGAGGGGCCGG [G45C] | 0.645 |

(Q) Which self-cleavage value is on record for ACCAGUGCCAAUGCCGGUCCCAAGCCCGGAUAAAAGUGGAGGGGGCGG [A2C C5G] ?
(A) 0.0784

(Q) Which self-cleavage value is on record for AACACUCCCAAUGCCGGUCCCAAGCCCGGAUAAAACUGGAGGGGGCGG [G7C G36C] ?
(A) 0.0549

(Q) Which self-cleavage value is on record for AACACUGCCAAUGCCGGUCCCAAGCCAGGAUAAAAGUGGAGUGGGCGG [C27A G42U] ?
(A) 0.113

(Q) Which self-cleavage value is on record for AACACGGCCAACGCCGGUCCCAAGCCCGGAUAAAAGUGGAGGGGGCGG [U6G U12C] ?
(A) 0.35

(Q) Which self-cleavage value is on record for AGCACUGCCAAUGCCGGUCCCAAGCCCGGAUAAAAGUGGAGGGGGCCG [A2G G47C] ?
(A) 0.212

(Q) Which self-cleavage value is on record for AACACUGCCAAUGCCGGUCCCAAACCCGGAUAAAAGUGGACGGGGCGG [G24A G41C] ?
(A) 0.0854

Hello, the source for this data is the RNAGym collection of RNA variant scans (doi:10.7554/elife.80360), in case you need it.
